These measurements were taken from ChEMBL document CHEMBL5346863.

system: Mycobacterium tuberculosis variant bovis; assay: Antibacterial activity against Mycobacterium bovis BCG ATCC 35734 assessed as bacterial growth inhibition incubated for 2 to 3 weeks by resazurin dye based assay; format: functional; conditions: time 2-3 weeks
# MIC listing for each entry below
Reported Property: MIC (µM)

>>> df
                            item_smiles  readout_unit  limit_sign  assay_result
 0  COc1ccc(COc2ccc(CNCc3ccccc3)cc2)cc1            µM           =           7.8
 1  Clc1ccc(COc2ccc(CNCc3ccccc3)cc2)cc1            µM           =           7.8
 2  Clc1ccc(COc2ccc(CNCc3ccncc3)cc2)cc1            µM           =          31.3
 3   Fc1ccc(COc2ccc(CNCc3ccncc3)cc2)cc1            µM           =          62.5
 4   Fc1ccc(COc2cccc(CNCc3cccnc3)c2)cc1            µM           >          62.5
 5    c1ccc(COc2ccc(CNCc3cccnc3)cc2)cc1            µM           >          62.5
 6  Clc1ccc(COc2cccc(CNCc3cccnc3)c2)cc1            µM           =          62.5
 7    Clc1ccc(COc2ccccc2CNCc2ccncc2)cc1            µM           =          62.5
 8  Brc1ccc(COc2ccc(CNCc3ccccc3)cc2)cc1            µM           =           3.9
 9     Fc1ccc(COc2ccccc2CNCc2cccnc2)cc1            µM           >          62.5
10    Brc1ccc(COc2ccccc2CNCc2cccnc2)cc1            µM           =          62.5
